# Test system: SK-MEL-5 melanoma
# experimental details: NCI tumour cell line growth inhibition, 48 h
experimental endpoint: TGI

Known results for compounds:
CCc1c(-c2coc(CC/C(C)=C/c3ccccc3)n2)oc(OC)c(C)c1=O : > 46.9 µM
CCCCCCCCCCCCCCCCCCNC(=S)/N=C/c1c(O)cc(C)oc1=O : > 100 µM
FC(F)(F)c1nc2cc(SSc3cc4nc(C(F)(F)F)[nH]c4cc3Cl)c(Cl)cc2[nH]1 : > 100 µM
COC(=O)C1=C2Nc3ccccc3C23CCN2C(O)C4(CC5CC67CCOC6CCN6CCC8(c9cccc(OC)c9N(C4)C58O)C67)C4OCCC4(C1)C23 (stereo unspecified) : > 100 µM
Cc1ccc(C(=O)NC(C)C)cc1N=NN(C)C : > 100 µM
COC(=O)NN=C1C(C)(C)C(=NNC(=O)OC)C1(C)C : > 100 µM

Look up TGI for the entries below, preserving their order.
1. COC(=O)C(C(=O)C(=O)Nc1ccc(C)cc1C)c1nc2ccc([N+](=O)[O-])cc2[nH]c1=O (stereo unspecified)
2. CNc1nc(=O)c(C#N)c(-c2ccc(C)cc2)s1
3. O=C(OCc1c(-c2ccccc2)nn(-c2ccccc2)c1COC(=O)Oc1ccccc1)Oc1ccccc1
4. CC1=NN(C(=O)c2ccccc2)C(=O)C1N=Nc1ccccc1C(=O)O (stereo unspecified)
5. CCC(c1nc2ccccc2c(=O)n1NC(=O)C(C)(C)C)C1(O)CCCCC1 (stereo unspecified)

> 100 µM
> 100 µM
> 100 µM
> 100 µM
> 100 µM

---

# Tested on: UACC-257 melanoma
# experimental details: NCI tumour cell line growth inhibition, 48 h
experimental endpoint: TGI

CCC(c1nc2ccccc2c(=O)n1NC(=O)C(C)(C)C)C1(O)CCCCC1 (stereo unspecified) : > 100 µM
Cc1noc(C)c1N=Nc1ccc2nonc2c1N : > 100 µM
CNc1nc(=O)c(C#N)c(-c2ccc(C)cc2)s1 : > 100 µM

Look up TGI for the entries below, preserving their order.
1. CCOC(=O)c1[nH]n(-c2ccccc2)c(=O)c1C=NC(=S)C(N)=S
2. C[n+]1c(-c2ccc(/C=N/Nc3n[nH]c(=S)n3N/N=C/c3ccc(-c4cn5ccccc5[n+]4C)cc3)cc2)cn2ccccc21

1: > 100 µM; 2: > 100 µM

What TGI appears in the records for this compound with UACC-257 melanoma? OC(C1CCCC1=N/N=C1/CCCC1C(O)(C(F)(F)Cl)C(F)(F)Cl)(C(F)(F)Cl)C(F)(F)Cl (stereo unspecified)
> 10 µM

---

# Tested on: HS 578T breast
# experimental details: NCI tumour cell line growth inhibition, 48 h; in the data active = GI50 below about 0.43 µM; inactive = the rest
I would appreciate it if you answered using one of these outcomes: active, inactive

// below: answered compounds
COc1cc2c(cc1-c1c(C)noc1C)ncc1[nH]c(=O)n([C@H](C)c3ccccn3)c12 : active
COc1ccc(Cn2cc3c(c2-c2ccccc2)CCc2cncnc2-3)cc1 : inactive
CN(C)CCC(=O)NCc1c2nc3ccccc3nc2n2ccccc12 : inactive

Please turn your attention to the following entry.
# fetch the recorded call for NCCCn1c2c(c3ccc([N+](=O)[O-])cc3c1=O)C(=O)c1cc(Cl)ccc1-2 here
inactive

---

# Tested on: NCI-H23 lung
# experimental details: NCI tumour cell line growth inhibition, 48 h
experimental endpoint: TGI

Known results for compounds:
O=C(O)CCc1nc(-c2ccccc2)c(-c2ccccc2)o1 : > 100 µM
O=C(O)C1(CC(CCCN2CCCCC2)c2ccccc2)CCCC1 (configuration not stated) : > 100 µM
CSc1ccc(C(=O)/C=C/c2ccc(F)cc2)cc1 : > 100 µM

Look up TGI for the entries below, preserving their order.
1. NC(=O)C12CCC1C1CCCCC12N1CCOCC1 (configuration not stated)
2. CC(C)c1ccc(O)c(O)c(=O)c1 (tested in a mixture with another compound)
3. N=C(N)Cn1cnc2ccccc21
4. O=C(O)C1Cc2ccccc2OC1=O (configuration not stated)
5. Cc1ccc(-c2nc3n(c2/C=N\N=C(N)N)CCS3)cc1
6. CC1=NN(c2cccc(Cl)c2)C2(C1)SCC(=O)N2c1nc2ccccc2s1 (configuration not stated)
7. O=C(O)C1C2CCC(C2)C1c1ccccc1 (configuration not stated)

["> 100 µM", "> 26.3 µM", "> 100 µM", "> 100 µM", "30.4 µM", "84.5 µM", "> 100 µM"]

Look up TGI for the entries below, preserving their order.
1. COc1cc(C(=O)OC2CC(C)=CC[C@@]3(C)CC[C@](O)(C(C)C)C23)ccc1O (some centres not stated)
2. Oc1oc(-c2ccccc2)nc1/C=C1/C=NN=N1
3. O=C1O[C@H](COC(=O)c2ccccc2)[C@@H](OC(=O)c2ccccc2)C=C1OC(=O)c1ccccc1
4. Nc1nc(SCc2ccccc2[N+](=O)[O-])c2[nH]cnc2n1

1: 32.6 µM; 2: > 100 µM; 3: 42.6 µM; 4: > 100 µM

Look up TGI for the entries below, preserving their order.
1. O=C(Nn1c2c(sc1=NC1CC1)C(=O)c1ccccc1C2=O)c1cc2ccc1CCc1ccc(cc1)CC2
2. CC(C)(C)n1cc(-c2ccnc(NCCCNS(=O)(=O)c3ccc(Cl)cc3)c2)c(-c2cccc(O)c2)n1

1: 4.32 µM; 2: 3.48 µM

Look up TGI for the entries below, preserving their order.
1. Cc1cccc2cc3ccc4ccccc4c3cc12
2. CC(=O)O[C@H]1CC[C@H]2[C@@H]3CC[C@H]4Nc5c(cnn5S(C)(=O)=O)C[C@]4(C)[C@H]3CC[C@]12C
3. CCOC(=O)CCc1c(C)c2c(O)cc(O)cc2oc1=O
4. CCCCCC/C=C\CCCCCCCCCc1c(O)c(OC)cc(O)c1CN(C)C
5. CCc1c(-c2coc(CC/C(C)=C/c3ccccc3)n2)oc(OC)c(C)c1=O
6. C[n+]1ccc2[nH]c3ccccc3c2c1

> 100 µM
> 100 µM
> 100 µM
23.1 µM
> 95.4 µM
> 100 µM
